Exercise: state measured Bliss excess for each of the compounds provided.
# Test system: C32 (Melanoma);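 further: after 72 h of two-drug dosing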
# EXPERIMENT: Bliss excess, mean over the matrix (fraction); higher = more synergy
Number only, please.

Item: CS(=O)(=O)CCNCc1ccc(-c2ccc3ncnc(Nc4ccc(OCc5cccc(F)c5)c(Cl)c4)c3c2)o1 [Lapatinib] + C[C@@H](Oc1cc(-c2cnn(C3CCNCC3)c2)cnc1N)c1c(Cl)ccc(F)c1Cl [Crizotinib] (first compound max 10 µM, 7x7, partner max 10 µM) Test system: C32 (Melanoma) Read-out: Bliss excess Value: ?;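 further: after 72 h of two-drug dosing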
-0.0067

One more compound: COc1nnc2ccc(N3CCC(c4ccc(OCCN5CCN(C)C(=O)[C@H]5C)cc4)CC3)nn12 [AZD5153] + C=CCn1c(=O)c2cnc(Nc3ccc(N4CCN(C)CC4)cc3)nc2n1-c1cccc(C(C)(C)O)n1 [AZD1775] (first compound max 1 µM, partner max 1 µM)
-0.0426

One more compound: CS(=O)(=O)CCNCc1ccc(-c2ccc3ncnc(Nc4ccc(OCc5cccc(F)c5)c(Cl)c4)c3c2)o1 [Lapatinib] + NC1(c2ccc(-c3nc4ccn5c(=O)[nH]nc5c4cc3-c3ccccc3)cc2)CCC1 [MK-2206] (first compound max 10 µM, 7x7, partner max 10 µM)
0.0188

One more compound: O=C(c1cc(Cc2n[nH]c(=O)c3ccccc23)ccc1F)N1CCN(C(=O)C2CC2)CC1 [Olaparib] + Cc1c2c(nn1C)CSCc1cc(n(C)n1)CSc1cc(c3ccccc3c1)OCCCc1c(C(=O)O)n(C)c3c-2c(Cl)ccc13 [AZD5991] (first compound max 10 µM, 7x7, partner max 1 µM)
-0.0585

###

# Test system: C2BBe1 (Colorectal Carcinoma)
# EXPERIMENT: combination Emax (second highest fraction inhibited in the dose matrix, 72 h); higher = more inhibition; extreme values may be limits of the assay
Exercise: state measured combination Emax for each of the compounds provided.

What value of combination Emax has been recorded for this entry: COc1nnc2ccc(N3CCC(c4ccc(OCCN5CCN(C)C(=O)[C@H]5C)cc4)CC3)nn12 [AZD5153] + CC1(C)CCC(CN2CCN(c3ccc(C(=O)NS(=O)(=O)c4ccc(NCC5CCOCC5)c([N+](=O)[O-])c4)c(Oc4cnc5[nH]ccc5c4)c3)CC2)=C(c2ccc(Cl)cc2)C1 [Venetoclax] (first compound max 1 µM, 7x7, partner max 1 µM)
0.378

One more compound: CN(CCO)CC[C@H](CSc1ccccc1)Nc1ccc(S(=O)(=O)NC(=O)c2ccc(N3CCC([C@@H](O)c4ccccc4-c4ccc(Cl)cc4)CC3)cc2)cc1S(=O)(=O)C(F)(F)F [AZD4320] + Cc1cc2ncnn2cc1Nc1ncc2c(n1)n(C1CCOCC1)c(=O)n2C [AZD7648] (first compound max 1 µM, 7x7, partner max 10 µM)
0.383

###

Exercise: state measured combination Emax for each of the compounds provided.
# Test system: MDA-MB-175-VII (Breast Carcinoma)
# EXPERIMENT: combination Emax (second highest fraction inhibited in the dose matrix, 72 h); higher = more inhibition; extreme values may be limits of the assay
Number only, please.

What value of combination Emax has been recorded for this entry: N#Cc1cnc(Nc2cc(NC[C@H]3CNCCO3)c(C(F)(F)F)cn2)cn1 [SRA737] + C=CCn1c(=O)c2cnc(Nc3ccc(N4CCN(C)CC4)cc3)nc2n1-c1cccc(C(C)(C)O)n1 [AZD1775] (first compound max 10 µM, partner max 1 µM)
0.276

One more compound: Cc1c2c(nn1C)CSCc1cc(n(C)n1)CSc1cc(c3ccccc3c1)OCCCc1c(C(=O)O)n(C)c3c-2c(Cl)ccc13 [AZD5991] + C1CN(CCC1(C(=O)N[C@@H](CCO)C2=CC=C(C=C2)Cl)N)C3=NC=NC4=C3C=CN4 [Capivasertib] (first compound max 1 µM, 7x7, partner max 3 µM)
0.488

One more compound: Cc1cc2ncnn2cc1Nc1ncc2c(n1)n(C1CCOCC1)c(=O)n2C [AZD7648] + O=C(c1cc(Cc2n[nH]c(=O)c3ccccc23)ccc1F)N1CCN(C(=O)C2CC2)CC1 [Olaparib] (first compound max 10 µM, 7x7, partner max 10 µM)
0.142

One more compound: Cn1cnc2c(F)c(Nc3ccc(Br)cc3Cl)c(C(=O)NOCCO)cc21 [Selumetinib] + C=CCn1c(=O)c2cnc(Nc3ccc(N4CCN(C)CC4)cc3)nc2n1-c1cccc(C(C)(C)O)n1 [AZD1775] (first compound max 10 µM, partner max 1 µM)
0.558
